B1: HDV Ribozyme (parent)
chain: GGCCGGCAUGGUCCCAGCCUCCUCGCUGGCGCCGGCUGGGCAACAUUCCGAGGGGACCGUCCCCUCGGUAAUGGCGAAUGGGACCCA

Variants of: B1
Test: self-cleavage, relative activity (ratio to wild type); higher = more cleavage; co-transcriptional
Collected self-cleavage values appear next to each entry.
Measured metric: self-cleavage

# Macromolecule sequence, Measured metric, Result
records = [
    ("GGCCGGCAUGGUCCCAGCCUCCACGCUGGCGCCGGCUGGGCAACAUUCCGAGGGGACCGUCCCCUCGGUAAUGGCGAAUGGGAACCA", "self-cleavage", 0.944),
    ("GGCCGGCAUGGUCCCAGCCUCCUCGCUAGCGCCGGCUGGGCAACAUUCCGAGGGGACCGUCCCCUCGGUAAUGUCGAAUGGGACCCA", "self-cleavage", 0.0432),
    ("GGCCGGCAUGGUCCCACCCUCCUCGCGGGCGCCGGCUGGGCAACAUUCCGAGGGGACCGUCCCCUCGGUAAUGGCGAAUGGGACCCA", "self-cleavage", 0.499),
    ("GGCCGGCAUGGUCCCAGCCUCCUCGCUGGCGCCGGCUGGGCAACAUUCCGAGGGAACCGUCCCCUCGGUAGUGGCGAAUGGGACCCA", "self-cleavage", 1.1),
    ("GGCCGGCAUGGUCCCAGCCUCCUCGCUGGCGCCGGCUGGGCAACACUCCGAGGAGACCGUCCCCUCGGUAAUGGCGAAUGGGACCCA", "self-cleavage", 0.519),
    ("GGCCGGCAUGGUCCCAGCCUCCUCGCUGGCGCCGGCUGGGCAACAUUACGAGGGGACCGUCCCCUCGGUAAUAGCGAAUGGGACCCA", "self-cleavage", 0.755),
    ("GGCCGGCAUGGUCCCAGCUUCCUCGCUGGCGCCGGUUGGGCAACAUUCCGAGGGGACCGUCCCCUCGGUAAUGGCGAAUGGGACCCA", "self-cleavage", 0.0314),
    ("GGCCGGCAUGGUACCAGCCUCCUCGCUGGCGCCGGCUGGGCAACAUUCCGAGGGGACCGUCCCCUCGGGAAUGGCGAAUGGGACCCA", "self-cleavage", 0.314),
    ("GGCCGGCAUGGUCCCACCCUCCUCGCUGGCGCCGGCUGGGCAACAUUCCGAGGGGAUCGUCCCCUCGGUAAUGGCGAAUGGGACCCA", "self-cleavage", 0.256),
    ("GGCCGGCAUGGUCCCAGCUUCCUCGCUGACGCCGGCUGGGCAACAUUCCGAGGGGACCGUCCCCUCGGUAAUGGCGAAUGGGACCCA", "self-cleavage", 0.102),
    ("GGCCGGCAUGGUCCCAGCCUCCUCGCUGGCGCCGGCUGGGCAACAUUCCGAGGGGACCAUCCCCUCGGUAUUGGCGAAUGGGACCCA", "self-cleavage", 0.929),
]

Entry source: the RNAGym collection of RNA variant scans (doi:10.7554/elife.80360)
